metric: melting point

# smiles_notation, melting point
measured = [
    ("Cc1[nH]c(/C=C2\\C(=O)Nc3cc(NC(=O)c4c[nH]cc(-c5ccc(F)cc5)c4=O)ccc32)c(C)c1C(=O)O", "283 °C"),
]

GET /value?item= `Cc1[nH]c(/C=C2\C(=O)Nc3cc(NC(=O)NC(=O)c4ccc(C(F)(F)F)cc4)ccc32)c(C)c1C(=O)O` &field=melting point returns > 300 °C

Notebook: `Cc1cc(C)c(/C=C2\C(=O)Nc3cc(NC(=O)c4c[nH]cc(-c5ccc(F)cc5)c4=O)ccc32)[nH]1` , melting point read as > 300 °C

// recorded melting point for `O=C1Nc2cc(NC(=O)c3cccn(-c4ccc(Cl)cc4)c3=O)ccc2/C1=C/c1ccc[nH]1` : > 300 °C

The recorded melting point for entry `Cc1cccc(C(=O)NC(=O)Nc2ccc3c(c2)NC(=O)/C3=C\c2[nH]c(C)c(CCC(=O)O)c2C)c1` equals 240 to 245 °C (dec.)

get_value(item= `COc1ccc(C(=O)NC(=O)Nc2ccc3c(c2)NC(=O)/C3=C\c2[nH]c(C)c(-c3ccccc3)c2C)cc1` , readout=melting point) returns > 300 °C

The recorded melting point for entry `O=C1Nc2cc(NC(=O)N3CCN(c4ccc(F)cc4)C3=O)ccc2/C1=C/c1ccc[nH]1` equals > 300 °C

====

metric: melting point

# smiles_notation, result
data = [
    ("Cc1[nH]c(/C=C2\\C(=O)Nc3cc(NC(=O)c4c[nH]cc(-c5cc(F)cc(F)c5)c4=O)ccc32)c(C)c1CCC(=O)O", "> 300 °C"),
    ("O=C1Nc2cc(NC(=O)c3cccn(-c4cccc(C(F)(F)F)c4)c3=O)ccc2/C1=C/c1ccc[nH]1", "> 300 °C"),
    ("Cc1[nH]c(/C=C2\\C(=O)Nc3cc(NC(=O)NC(=O)c4ccccc4)ccc32)c(C)c1C(=O)O", "270 to 275 °C (dec.)"),
    ("Cc1[nH]c(/C=C2\\C(=O)Nc3cc(NC(=O)c4c[nH]cc(-c5ccc(F)cc5)c4=O)ccc32)c(C)c1CC(=O)O", "> 300 °C"),
    ("Cc1ccc(C(=O)NC(=O)Nc2ccc3c(c2)NC(=O)/C3=C\\c2ccc[nH]2)cc1", "290 to 295 °C (dec.)"),
    ("O=C1Nc2ccc(NC(=O)c3cccn(-c4ccc(F)cc4)c3=O)cc2/C1=C/c1ccc[nH]1", "> 300 °C"),
]

Please look at the following compound next.
The recorded melting point for `Cc1ccc(-c2c[nH]cc(C(=O)Nc3ccc4c(c3)NC(=O)/C4=C\c3ccc[nH]3)c2=O)cc1` is > 300 °C

====

melting point listing for selected molecules.

# smiles_notation, metric, result
measured = [
    ("Cc1c[nH]cc(C(=O)Nc2ccc3c(c2)NC(=O)/C3=C\\c2ccc[nH]2)c1=O", "melting point", "> 300 °C"),
]

The measured melting point associated with `COc1ccc(C(=O)NC(=O)Nc2ccc3c(c2)NC(=O)/C3=C\c2cccs2)cc1` reads 262 to 267 °C (dec.)

Entry `O=C1Nc2cc(NC(=O)N3CCN(c4ccc(Cl)cc4)C3=O)ccc2/C1=C/c1ccc[nH]1` — recorded melting point = > 300 °C

get_value(item= `Cc1[nH]c(/C=C2\C(=O)Nc3cc(NC(=O)NC(=O)c4ccc([N+](=O)[O-])cc4)ccc32)c(C)c1C(=O)O` , readout=melting point) returns 293 to 298 °C (dec.)

====

Target: aurora B (Homo sapiens)
Sequence (Q96GD4 whole entry): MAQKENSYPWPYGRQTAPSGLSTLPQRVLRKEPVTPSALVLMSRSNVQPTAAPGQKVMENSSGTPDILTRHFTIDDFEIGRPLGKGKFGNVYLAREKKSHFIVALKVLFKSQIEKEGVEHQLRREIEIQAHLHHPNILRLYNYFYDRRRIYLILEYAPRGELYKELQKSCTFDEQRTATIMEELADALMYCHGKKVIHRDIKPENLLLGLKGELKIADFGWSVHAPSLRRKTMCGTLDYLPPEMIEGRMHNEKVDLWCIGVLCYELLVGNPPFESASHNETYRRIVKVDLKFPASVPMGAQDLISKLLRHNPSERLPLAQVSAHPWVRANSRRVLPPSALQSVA
Assay: radioisotope-based P81 filter-binding assay, aurora B kinase
Type: biochemical
Details: averaged from two independent dose-response curves; read-out: Enzyme assay IC50 Aur B
metric: IC50 (nM)

# smiles_notation, system, IC50 [nM]
data = [
    ("Cc1[nH]c(/C=C2\\C(=O)Nc3cc(NC(=O)NC(=O)c4ccc(Cl)cc4)ccc32)c(C)c1C(=O)O", "aurora B (Homo sapiens)", 3.1),
    ("COc1ccc(-c2c[nH]cc(C(=O)Nc3ccc4c(c3)NC(=O)/C4=C\\c3[nH]c(C)c(C(=O)NCCN4CCCC4)c3C)c2=O)cc1", "aurora B (Homo sapiens)", 19.2),
]

[A] Cc1[nH]c(/C=C2\C(=O)Nc3cc(NC(=O)NC(=O)c4ccc(F)cc4)ccc32)c(C)c1CCC(=O)O
[B] O=C1Nc2cc(NC(=O)c3c[nH]cc(-c4cccc(Cl)c4)c3=O)ccc2/C1=C/c1ccc[nH]1
Input: Decide: A or B , by lowest recorded IC50. Lab note: record the label of whichever item you select.
Output: A

[a] Cc1[nH]c(/C=C2\C(=O)Nc3cc(NC(=O)NC(=O)c4ccc(C(F)(F)F)cc4)ccc32)c(C)c1C(=O)O
[b] O=C(NC(=O)c1ccc(Cl)c(C(F)(F)F)c1)Nc1ccc2c(c1)NC(=O)/C2=C\c1ccc[nH]1
Input: Quick one: lower IC50, a or b ? // output: label of the selected item
Output: a
(a: 3.1 nM, b: 15 nM)

====

Molecular target: FLT-3 (Homo sapiens)
Sequence (P36888 27-993): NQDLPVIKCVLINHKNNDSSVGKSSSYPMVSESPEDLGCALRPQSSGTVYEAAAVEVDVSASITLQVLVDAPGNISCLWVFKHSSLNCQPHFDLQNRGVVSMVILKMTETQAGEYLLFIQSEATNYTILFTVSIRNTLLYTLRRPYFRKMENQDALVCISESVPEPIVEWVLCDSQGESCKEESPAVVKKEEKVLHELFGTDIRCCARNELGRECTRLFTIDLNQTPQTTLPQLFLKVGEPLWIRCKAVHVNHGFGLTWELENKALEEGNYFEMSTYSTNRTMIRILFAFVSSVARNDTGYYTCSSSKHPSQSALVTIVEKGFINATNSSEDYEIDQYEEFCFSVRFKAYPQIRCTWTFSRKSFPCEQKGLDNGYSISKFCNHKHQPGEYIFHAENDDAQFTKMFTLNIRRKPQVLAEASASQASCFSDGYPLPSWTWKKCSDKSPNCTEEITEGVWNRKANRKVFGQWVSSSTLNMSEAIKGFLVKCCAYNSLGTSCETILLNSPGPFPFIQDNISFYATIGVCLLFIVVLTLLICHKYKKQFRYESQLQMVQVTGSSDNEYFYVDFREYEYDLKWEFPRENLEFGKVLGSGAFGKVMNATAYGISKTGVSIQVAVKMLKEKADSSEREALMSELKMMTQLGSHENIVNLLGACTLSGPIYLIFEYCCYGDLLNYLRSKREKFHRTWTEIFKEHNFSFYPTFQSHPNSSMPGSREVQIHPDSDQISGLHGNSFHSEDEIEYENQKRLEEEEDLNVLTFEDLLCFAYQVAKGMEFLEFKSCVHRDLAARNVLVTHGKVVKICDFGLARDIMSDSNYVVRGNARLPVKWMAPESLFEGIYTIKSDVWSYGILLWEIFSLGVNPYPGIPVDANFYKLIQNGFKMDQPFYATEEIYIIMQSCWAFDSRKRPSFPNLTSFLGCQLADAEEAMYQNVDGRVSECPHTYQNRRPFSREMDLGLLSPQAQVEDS
Experiment: radioisotope-based P81 filter-binding assay, FLT-3 kinase
Assay type: biochemical
Settings: compound at 1.0 μM; mean values (n=2); read-out: percent inhibition of enzyme catalytic activity, FLT-3 (numbers in parentheses)
metric: inhibition at 1 µM (%)

# compound, numeric_result
records = [
    ("COc1ccc(C(=O)NC(=O)Nc2cccc3c2NC(=O)/C3=C\\c2ccc[nH]2)cc1 [D16]", 6.9),
    ("COc1ccc(N2CCN(C(=O)Nc3ccc4c(c3)NC(=O)/C4=C\\c3ccc[nH]3)C2=O)cc1 [D91]", 26),
]

[I] COc1ccc(/C=C2/C(=O)Nc3cc(NC(=O)NC(=O)c4ccc(OC)cc4)ccc32)cc1 [D19]
[II] COc1ccc(C(=O)NC(=O)Nc2ccc3c(c2)NC(=O)/C3=C\c2ccncc2)cc1 [D21]
Input: Please state the entry with greater inhibition at 1 µM among I and II . State the label of the item chosen.
Output: I

====

Items are presented alongside their recorded melting point.

# molecule, melting point
rows = [
    ("CCN(CC)CCNC(=O)c1c(C)[nH]c(/C=C2\\C(=O)Nc3cc(NC(=O)NC(=O)c4ccc(OC)cc4F)ccc32)c1C [D69]", "275 to 280 °C (dec.)"),
    ("COc1ccc(C(=O)NC(=O)Nc2ccc3c(c2)NC(=O)/C3=C\\c2[nH]c(C)c(CCC(=O)N3CCN(C)CC3)c2C)c(F)c1 [D65]", "229 to 234 °C (dec.)"),
    ("COc1ccc(C(=O)NC(=O)Nc2ccc3c(c2)NC(=O)/C3=C/c2ccccc2)cc1 [D17]", "277 to 282 °C (dec.)"),
    ("O=C1Nc2cc(NC(=O)c3c[nH]cc(-c4ccccc4)c3=O)ccc2/C1=C/c1ccc[nH]1 [D127]", "> 300 °C"),
    ("COc1ccc(-n2cccc(C(=O)Nc3ccc4c(c3)NC(=O)/C4=C\\c3ccc[nH]3)c2=O)cc1 [D106]", "> 300 °C"),
    ("Cc1[nH]c(/C=C2\\C(=O)Nc3cc(NC(=O)NC(=O)c4ccc(F)cc4F)ccc32)c(C)c1CCC(=O)O [D56]", "280 to 285 °C (dec.)"),
]

According to the records, this molecule O=C1Nc2c(NC(=O)c3cccn(-c4ccc(F)cc4)c3=O)cccc2/C1=C/c1ccc[nH]1 [D118] displays melting point of > 300 °C

# melting point of Cc1[nH]c(/C=C2\C(=O)Nc3cc(NC(=O)N4CCN(C5CC5)C4=O)ccc32)c(C)c1C(=O)O [D96] = > 300 °C

Recorded result, O=C(NC(=O)c1ccc(C(F)(F)F)cc1)Nc1ccc2c(c1)NC(=O)/C2=C\c1ccc[nH]1 [D27] , melting point: > 300 °C

GET /value?item= COc1ccc(C(=O)NC(=O)Nc2ccc3c(c2)NC(=O)/C3=C\c2ccncc2)cc1 [D21] &field=melting point returns 270 to 275 °C (dec.)

Looking up Cc1[nH]c(/C=C2\C(=O)Nc3cc(NC(=O)NC(=O)c4ccc(Cl)c(Cl)c4)ccc32)c(C)c1C(=O)O [D34] , I found its melting point recorded as 295 to 300 °C (dec.)

Summary for this molecule, COc1cc(F)c(C(=O)NC(=O)Nc2cc3c(cc2F)/C(=C/c2[nH]c(C)c(C(=O)O)c2C)C(=O)N3)c(F)c1 [D61] : melting point is > 300 °C

Field melting point (entry Cc1[nH]c(/C=C2\C(=O)Nc3cc(NC(=O)c4c[nH]cc(C)c4=O)ccc32)c(C)c1C(=O)O [D143] ) reads > 300 °C

melting point in this record for CN1CCN(C(=O)Nc2ccc3c(c2)NC(=O)/C3=C\c2ccc[nH]2)C1=O [D80] : 267 to 272 °C (dec.)
